target: hsHDAC1 (Homo sapiens, UniProt Q13547)
Sequence (Q13547 whole entry): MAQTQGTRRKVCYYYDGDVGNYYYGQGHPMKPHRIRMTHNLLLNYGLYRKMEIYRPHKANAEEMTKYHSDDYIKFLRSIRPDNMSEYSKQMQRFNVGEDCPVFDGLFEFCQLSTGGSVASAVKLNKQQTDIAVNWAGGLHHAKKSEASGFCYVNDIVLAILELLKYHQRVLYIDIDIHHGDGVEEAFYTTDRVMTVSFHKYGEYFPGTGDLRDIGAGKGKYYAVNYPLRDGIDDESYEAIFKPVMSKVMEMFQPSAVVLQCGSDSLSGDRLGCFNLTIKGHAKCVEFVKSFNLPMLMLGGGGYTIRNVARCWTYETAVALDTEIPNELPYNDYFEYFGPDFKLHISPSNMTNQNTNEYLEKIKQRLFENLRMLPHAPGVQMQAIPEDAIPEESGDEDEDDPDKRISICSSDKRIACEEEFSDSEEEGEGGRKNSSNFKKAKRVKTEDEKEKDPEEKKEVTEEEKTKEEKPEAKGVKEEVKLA
measured_attribute: pIC50
The scale used: pIC50 is minus the common logarithm of the concentration in molar units.

Qu. State the recorded pIC50 for this entry: CCCCCC(=O)N(O)C1CC(=O)N(c2ccccc2)C1=O (stereo not drawn)
Ans. 4.59

Qu. State the recorded pIC50 for this entry: CCCCC(=O)N(O)C1CC(=O)N(c2ccccc2)C1=O (stereo not drawn)
Ans. 4.38

Qu. State the recorded pIC50 for this entry: COc1ccc(C(=O)NO)cc1NC(=O)c1ccc(-c2ccccc2)cc1 [TH65, reference compound]
Ans. 5.20

---

Molecular target: smHDAC8 (Schistosoma mansoni, UniProt A5H660)
Sequence (A5H660 1-440): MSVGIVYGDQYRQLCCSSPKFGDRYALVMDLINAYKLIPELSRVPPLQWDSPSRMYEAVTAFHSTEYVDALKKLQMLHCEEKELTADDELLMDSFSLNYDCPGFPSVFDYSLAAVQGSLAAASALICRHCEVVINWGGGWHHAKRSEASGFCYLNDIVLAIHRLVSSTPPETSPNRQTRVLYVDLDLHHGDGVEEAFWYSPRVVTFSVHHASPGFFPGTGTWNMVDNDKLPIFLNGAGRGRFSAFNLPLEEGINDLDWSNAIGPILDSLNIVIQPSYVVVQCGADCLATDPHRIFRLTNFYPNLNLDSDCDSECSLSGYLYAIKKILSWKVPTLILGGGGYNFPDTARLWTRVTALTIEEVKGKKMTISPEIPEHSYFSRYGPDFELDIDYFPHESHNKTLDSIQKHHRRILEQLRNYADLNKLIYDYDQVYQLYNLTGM
Values of IC50 strictly less than 8 µM map to true, and values of at least 8 µM map to false.

Qu. A record lists CCCCCCC(=O)N(O)C1CC(=O)N(c2ccc(Br)cc2)C1=O (centres unmarked) [J1063] . Is its IC50 below 8 µM?
Ans. true

Qu. A record lists CCCCC(=O)N(O)C1CC(=O)N(c2ccccc2)C1=O (centres unmarked) [J1057] . Is its IC50 below 8 µM?
Ans. false

Qu. A record lists CCCCCCC(=O)N(O)C1CC(=O)N(c2ccc(Cl)cc2)C1=O (centres unmarked) [J1061] . Is its IC50 below 8 µM?
Ans. true

Qu. A record lists CCCCCCC(=O)N(O)C1CC(=O)N(c2ccc(C)cc2)C1=O (centres unmarked) [J1065] . Is its IC50 below 8 µM?
Ans. false
